Test system: Mtb Erdman
method: Semi-quantitative MBC (sqMBC) assay
Format: cell-based, Mycobacterium tuberculosis
experimentalSetup: M. tuberculosis Erdman, 10 d incubation, 99% (2-log10) CFU reduction of inoculum
metric: sqMBC

Request - read-out sqMBC | tested on Mtb Erdman | molecule C[C@H]1COC2(CCN(c3nc(=O)c4cc(C(F)(F)F)cc([N+](=O)[O-])c4s3)CC2)O1 [BTZ-043]
0.016 µg/mL

Request - read-out sqMBC | tested on Mtb Erdman | molecule COc1ncnc(Cn2cc(C(=O)NCCO)c3ncc(C)cc32)c1C [TBA-7371]
1 µg/mL

Request - read-out sqMBC | tested on Mtb Erdman | molecule O=c1nc(N2CCN(CC3CCCCC3)CC2)sc2c([N+](=O)[O-])cc(C(F)(F)F)cc12 [PBTZ169]
≤ 0.002 µg/mL

Request - read-out sqMBC | tested on Mtb Erdman | molecule COc1c(N2C[C@@H]3CCCN[C@@H]3C2)c(F)cc2c(=O)c(C(=O)O)cn(C3CC3)c12 [moxifloxacin]
0.125 µg/mL

Request - read-out sqMBC | tested on Mtb Erdman | molecule O=C1CCc2c(OC[C@]3(O)CCN(c4c(F)cc(Cl)cc4F)C[C@H]3O)ccc(F)c2N1 [OPC-167832]
0.001 µg/mL

Request - read-out sqMBC | tested on Mtb Erdman | molecule CC(=O)NC[C@H]1CN(c2ccc(N3CCOCC3)c(F)c2)C(=O)O1 [linezolid]
> 8 µg/mL
